Origin of measurements: the supplement of paper PMC10567573

As shown below, each of these variants has a reported protein stability index value.
B1: IKZF1 (parent)
chain: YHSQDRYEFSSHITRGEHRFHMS

# Variants of: B1
# experiment-summary: protein stability index of a GFP-peptide fusion (GPS, HEK-293T) (PSI 1-6); higher = more stable;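 note: lentivirally expressed fusions sorted by FACS into six bins by GFP to DsRed ratio, PSI derived from sequencing read proportions per bin multiplied by bin number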
# experimental-setup: c terminus: native
Would you mind answering with just the numeric figure?

Looking up Q4E , I see its protein stability index listed as 3.35

Looking up S3M , I see its protein stability index listed as 1.95

Looking up S10K , I see its protein stability index listed as 1.27

Looking up H21I , I see its protein stability index listed as 3.07

Looking up Y7I , I see its protein stability index listed as 2.27

Looking up S23I , I see its protein stability index listed as 2.18

Looking up E8T , I see its protein stability index listed as 3.44

Looking up S10V , I see its protein stability index listed as 1.95

Looking up F9S , I see its protein stability index listed as 3.12

Looking up M22W , I see its protein stability index listed as 1.65

Looking up H12E , I see its protein stability index listed as 2.47

Looking up F9P , I see its protein stability index listed as 1.73

Looking up S3Q , I see its protein stability index listed as 2.54

Looking up H18D , I see its protein stability index listed as 1.12

Looking up S10C , I see its protein stability index listed as 1.56

Looking up R15Y , I see its protein stability index listed as 2.29

Looking up R6T , I see its protein stability index listed as 1.8

Looking up I13Q , I see its protein stability index listed as 1.62

Looking up T14Y , I see its protein stability index listed as 1.37

Looking up R6N , I see its protein stability index listed as 2.44

Looking up M22N , I see its protein stability index listed as 2.06

Looking up I13G , I see its protein stability index listed as 2.7
